Recorded measurements of CC50 at 72 h, one per entry
Assay: Cytotoxicity against human THP-1 cells assessed as reduction in cell viability measured after 72 hrs by MTT assay
Assay type: cell-based
Give the number; µM is assumed, so skip it.

// CCCCCCCCCCCCCCCCOP(=O)([O-])OCC[N+](C)(C)C : CC50 at 72 h value = 28.8

// CC(C)C[C@H]1NC(=O)[C@@H](Cc2c[nH]c3ccccc23)n2c1nc1ccccc1c2=O : CC50 at 72 h value = 25

// CC(C)C[C@@H]1NC(=O)[C@@H](Cc2c[nH]c3ccccc23)n2c1nc1cc(Cl)c(Cl)cc1c2=O : CC50 at 72 h value = 25

====

Experiment: Selectivity index, ratio of CC50 for cytotoxicity against human THP-1 cells to IC50 for antitrypanosomal activity against bloodstream form of Trypanosoma brucei Lister 427
Format: toxicity, cell-based
Settings: read-out: Ratio CC50/IC50
Recorded measurements of selectivity ratio, one per entry

// solved cases for selectivity ratio follow
O=C1N[C@@H](Cc2ccc(OCc3ccccc3)cc2)c2nc3cc(Cl)c(Cl)cc3c(=O)n2[C@@H]1Cc1c[nH]c2ccccc12    > 25.6
CC(C)C[C@@H]1NC(=O)[C@@H](Cc2c[nH]c3ccccc23)n2c1nc1ccc(I)cc1c2=O    12.2
O=C1N[C@H](Cc2ccc(OCc3ccccc3)cc2)c2nc3ccccc3c(=O)n2[C@H]1Cc1c[nH]c2ccccc12    > 62.5

// CC(C)[C@@H]1NC(=O)[C@H](Cc2c[nH]c3ccccc23)n2c1nc1ccccc1c2=O : selectivity ratio value = > 21.7

====

Test system: Plasmodium falciparum
Assay: Antiplasmodial activity against Plasmodium falciparum 3D7 infected in erythrocytes assessed as parasite growth inhibition measured after 72 hrs by LDH assay
Format: functional, organism-based
Settings: 3D7, Erythrocyte
measurement-name: pEC50
Remember the convention: pEC50 equals -log10 of concentration in molar.

// Clc1ccc2nccc(N3CCC(CN4CCC(c5c[nH]c6ccccc56)CC4)CC3)c2c1 : pEC50 value = 7.47

====

Test: Cytotoxicity against human THP-1 cells assessed as reduction in cell viability measured after 72 hrs by MTT assay
Assay type: cell-based
measurement-name: CC50 at 72 h

COc1ccc2nc3n(c(=O)c2c1)[C@H](Cc1c[nH]c2ccccc12)C(=O)N[C@H]3CC(C)C    > 100 µM

// CC(C)[C@H]1NC(=O)[C@@H](Cc2c[nH]c3ccccc23)n2c1nc1ccccc1c2=O : CC50 at 72 h value = > 100 µM

// O=C1N[C@H](Cc2ccc(O)cc2)c2nc3ccccc3c(=O)n2[C@H]1Cc1c[nH]c2ccccc12 : CC50 at 72 h value = > 100 µM

// CC(C)[C@H]1NC(=O)[C@H](Cc2c[nH]c3ccccc23)n2c1nc1ccccc1c2=O : CC50 at 72 h value = > 100 µM
